System: HeLa Kyoto;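 note: synchronized HeLa Kyoto cells, proteins quantified by TMT10plex mass spectrometry, three biological replicates, mitosis taken 0.5 h after nocodazole release, G1/S directly after double thymidine block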
experimentNotes: thermal stability score vs G1/S (z-score of summed log2 fold changes over temperatures); higher = more thermally stable than in G1/S
assaySetup: cell cycle stage: early G1 (4.5 h after nocodazole release)
Parameter: thermal stability score. Scope: all listed entries.
quantityKind: thermal stability score

>  <sequenceText>
MSSEPPPPPQPPTHQASVGLLDTPRSRERSPSPLRGNVVPSPLPTRRTRTFSATVRASQGPVYKGVCKCFCRSKGHGFITPADGGPDIFLHISDVEGEYVPVEGDEVTYKMCSIPPKNEKLQAVEVVITHLAPGTKHETWSGHVISS [CARHSP1]

>  <result>
-0.479

$$$$
>  <sequenceText>
MGTPQKDVIIKSDAPDTLLLEKHADYIASYGSKKDDYEYCMSEYLRMSGIYWGLTVMDLMGQLHRMNREEILAFIKSCQHECGGISASIGHDPHLLYTLSAVQILTLYDSINVIDVNKVVEYVKGLQKEDGSFAGDIWGEIDTRFSFCAVATLALLGKLDAINVEKAIEFVLSCMNFDGGFGCRPGSESHAGQIYCCTGFLAITSQLHQVNSDLLGWWLCERQLPSGGLNGRPEKLPDVCYSWWVLASLKIIGRLHWIDREKLRNFILACQDEETGGFADRPGDMVDPFHTLFGIAGLSLLGEEQIKPVNPVFCMPEEVLQRVNVQPELVS [RABGGTB]

>  <result>
-0.232

$$$$
>  <sequenceText>
MPLPVALQTRLAKRGILKHLEPEPEEEIIAEDYDDDPVDYEATRLEGLPPSWYKVFDPSCGLPYYWNADTDLVSWLSPHDPNSVVTKSAKKLRSSNADAEEKLDRSHDKSDRGHDKSDRSHEKLDRGHDKSDRGHDKSDRDRERGYDKVDRERERDRERDRDRGYDKADREEGKERRHHRREELAPYPKSKKAVSRKDEELDPMDPSSYSDAPRGTWSTGLPKRNEAKTGADTTAAGPLFQQRPYPSPGAVLRANAEASRTKQQD [PQBP1]

>  <result>
-3.93

$$$$
>  <sequenceText>
MAATKRKRRGGFAVQAKKPKRNEIDAEPPAKRHATAEEVEEEERDRIPGPVCKGKWKNKERILIFSSRGINFRTRHLMQDLRMLMPHSKADTKMDRKDKLFVINEVCEMKNCNKCIYFEAKKKQDLYMWLSNSPHGPSAKFLVQNIHTLAELKMTGNCLKGSRPLLSFDPAFDELPHYALLKELLIQIFSTPRYHPKSQPFVDHVFTFTILDNRIWFRNFQIIEEDAALVEIGPRFVLNLIKIFQGSFGGPTLYENPHYQSPNMHRRVIRSITAAKYREKQQVKDVQKLRKKEPKTLLPHDPTADVFVTPAEEKPIEIQWVKPEPKVDLKARKKRIYKRQRKMKQRMDSGKTK [BRIX1]

>  <result>
0.649

$$$$
>  <sequenceText>
MGRLVAVGLLGIALALLGERLLALRNRLKASREVESVDLPHCHLIKGIEAGSEDIDILPNGLAFFSVGLKFPGLHSFAPDKPGGILMMDLKEEKPRARELRISRGFDLASFNPHGISTFIDNDDTVYLFVVNHPEFKNTVEIFKFEEAENSLLHLKTVKHELLPSVNDITAVGPAHFYATNDHYFSDPFLKYLETYLNLHWANVVYYSPNEVKVVAEGFDSANGINISPDDKYIYVADILAHEIHVLEKHTNMNLTQLKVLELDTLVDNLSIDPSSGDIWVGCHPNGQKLFVYDPNNPPSSEVLRIQNILSEKPTVTTVYANNGSVLQGSSVASVYDGKLLIGTLYHRALYCEL [PON2]

>  <result>
4.83

$$$$
>  <sequenceText>
MLPAALLRRPGLGRLVRHARAYAEAAAAPAAASGPNQMSFTFASPTQVFFNGANVRQVDVPTLTGAFGILAAHVPTLQVLRPGLVVVHAEDGTTSKYFVSSGSIAVNADSSVQLLAEEAVTLDMLDLGAAKANLEKAQAELVGTADEATRAEIQIRIEANEALVKALE [ATP5D]

>  <result>
-2.35

$$$$
